Data origin: patent US20180030151A1

Measured A405, TF/FVIIa/FX complex assay, Ab 1.56 nM, listed per entry.
- Tested On: recombinant human TFPI (tissue factor pathway inhibitor) (human, UniProt P10646 29-304)
- Test Protocol: cell-based or functional assay
Hey, just send me the number, nothing else.

* clone 3241 (antibody, V domains shown, scFv on yeast at selection; human IgG4/kappa IgG as purified; also called No. 3241 antibody) VH: EVQLVESGGGLVKPGGSLRLSCAASGFTFSSYAMNWVRQAPGKGLEWVSTITTGGSYTYYADSVEGRFTISRDNAKNSLYLQMNSLRAEDTAVYYCARQDGNFLMDYWGQGTLVTVSS VL: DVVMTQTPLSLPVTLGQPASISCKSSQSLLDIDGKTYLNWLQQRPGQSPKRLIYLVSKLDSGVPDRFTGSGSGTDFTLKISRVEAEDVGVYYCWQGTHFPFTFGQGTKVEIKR | 0.157
* clone 1023 (antibody, V domains shown, scFv on yeast at selection; human IgG4/kappa IgG as purified) VH: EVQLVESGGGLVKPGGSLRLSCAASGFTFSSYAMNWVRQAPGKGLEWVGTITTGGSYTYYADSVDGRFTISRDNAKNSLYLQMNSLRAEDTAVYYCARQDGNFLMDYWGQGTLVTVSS VL: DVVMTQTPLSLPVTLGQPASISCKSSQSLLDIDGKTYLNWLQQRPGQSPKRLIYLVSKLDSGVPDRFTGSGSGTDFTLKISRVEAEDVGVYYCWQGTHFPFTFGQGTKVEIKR | 0.135
* clone 3203 (antibody, V domains shown) VH: EVQLVESGGGLVKPGGSLRLSCAASGFTFSSYAMSWVRQAPGKGLEWVSTITTGGSYTYYADSVEGRFTISRDNAKNSLYLQMNSLRAEDTAVYYCARQDGNFLMDYWGQGTLVTVSS VL: DVVMTQTPLSLPVTLGQPASISCKSSQSLLDLDGKTYLNWLQQRPGQSPKRLIYLVSKLDSGVPDRFTGSGSGTDFTLKISRVEAEDVGVYYCWQGTHFPFTFGQGTKVEIKR | 0.147

Turning to the following binder.
Request: Query A405, TF/FVIIa/FX complex assay, Ab 1.56 nM for clone A67 (antibody, V domains shown) VH: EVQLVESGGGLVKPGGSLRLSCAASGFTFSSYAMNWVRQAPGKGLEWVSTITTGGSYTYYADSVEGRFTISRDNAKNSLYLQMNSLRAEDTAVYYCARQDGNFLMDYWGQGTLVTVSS VL: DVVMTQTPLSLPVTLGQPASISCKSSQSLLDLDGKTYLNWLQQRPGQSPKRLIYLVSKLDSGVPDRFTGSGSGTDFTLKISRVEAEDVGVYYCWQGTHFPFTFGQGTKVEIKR
Response: 0.149
